Source listed as ChEMBL document CHEMBL4715869.

assay: Apparent clearance in Sprague-Dawley rat at 5 mg/kg, po administered via gavage measured upto 24 hrs by LC/MS/MS analysis; type: ADME, organism-based; conditions: in vivo, read-out: CL(app) (converted)
property: CL/F (mL/min/kg)
Note: unit mL/min/kg is implicit; provide only the numeric part.

Q. Item Cc1cnc(Nc2ccc3c(c2)CCN(C(=O)/C=C/CN(C)C)C3)nc1-c1cnn(C(C)C)c1 has what recorded CL/F?
A. 480

----------
biological target: Non-receptor tyrosine-protein kinase TYK2 (Homo sapiens, UniProt P29597); assay: Inhibition of recombinant human TYK2 (875 to end residues) using GGMEDIYFEFMGGKKK as substrate incubated for 40 mins in presence of [gamma33P]ATP by scintillation counting based radiometry assay
Sequence (P29597 whole entry): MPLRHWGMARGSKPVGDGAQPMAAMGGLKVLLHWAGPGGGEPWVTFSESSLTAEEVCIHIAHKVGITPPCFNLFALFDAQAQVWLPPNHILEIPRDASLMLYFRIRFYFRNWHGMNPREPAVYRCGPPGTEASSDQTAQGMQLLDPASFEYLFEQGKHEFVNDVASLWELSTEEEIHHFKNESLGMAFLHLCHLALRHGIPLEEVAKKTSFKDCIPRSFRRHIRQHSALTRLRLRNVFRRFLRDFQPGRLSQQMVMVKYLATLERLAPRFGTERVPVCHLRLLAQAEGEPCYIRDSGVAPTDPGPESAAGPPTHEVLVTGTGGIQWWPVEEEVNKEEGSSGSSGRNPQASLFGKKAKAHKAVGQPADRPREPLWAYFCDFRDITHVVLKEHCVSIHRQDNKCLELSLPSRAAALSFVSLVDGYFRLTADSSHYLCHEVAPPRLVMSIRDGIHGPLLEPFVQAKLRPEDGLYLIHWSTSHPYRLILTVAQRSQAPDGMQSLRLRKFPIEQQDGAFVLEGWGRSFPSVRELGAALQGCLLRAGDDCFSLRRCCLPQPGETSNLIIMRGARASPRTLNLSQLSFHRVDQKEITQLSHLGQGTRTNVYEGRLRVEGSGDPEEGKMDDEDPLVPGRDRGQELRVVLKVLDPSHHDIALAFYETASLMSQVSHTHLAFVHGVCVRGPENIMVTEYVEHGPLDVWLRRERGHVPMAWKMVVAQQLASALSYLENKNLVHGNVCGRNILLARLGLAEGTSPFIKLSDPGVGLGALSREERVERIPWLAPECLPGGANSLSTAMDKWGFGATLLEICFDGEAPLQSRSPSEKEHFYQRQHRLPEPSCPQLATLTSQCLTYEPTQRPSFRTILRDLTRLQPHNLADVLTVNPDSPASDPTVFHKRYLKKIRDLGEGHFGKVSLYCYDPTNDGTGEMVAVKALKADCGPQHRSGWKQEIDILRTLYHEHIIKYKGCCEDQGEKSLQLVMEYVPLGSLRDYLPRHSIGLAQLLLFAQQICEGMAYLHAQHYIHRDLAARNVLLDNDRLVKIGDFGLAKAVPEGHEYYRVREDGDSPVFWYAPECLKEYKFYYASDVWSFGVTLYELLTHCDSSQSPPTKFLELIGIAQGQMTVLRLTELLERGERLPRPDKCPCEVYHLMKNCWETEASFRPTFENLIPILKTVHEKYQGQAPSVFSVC
Each item that follows carries a reported IC50.

>>> experimentalvalue("Cc1cnc(Nc2ccc3c(c2)CCN(C(=O)/C=C/C(=O)c2ccccc2)C3)nc1-c1cnn(C(C)C)c1")
"79 nM"
>>> experimentalvalue("Cc1cnc(Nc2ccc3c(c2)CCN(C(=O)/C=C/CN(C)C)C3)nc1-c1cnn(C(C)C)c1")
"75 nM"
>>> experimentalvalue("Cc1cnc(Nc2ccc3c(c2)CCN(CC#N)C3)nc1-c1cnn(C(C)C)c1")
"56 nM"
>>> experimentalvalue("Cc1cnc(Nc2ccc3c(c2)CN(C(=O)/C=C/CN(C)C)CC3)nc1-c1cnn(C(C)C)c1")
"45 nM"
>>> experimentalvalue("Cc1ccc(C(=O)/C=C/C(=O)N2CCc3cc(Nc4ncc(C)c(-c5cnn(C(C)C)c5)n4)ccc3C2)cc1")
"100 nM"

Q. Tell me reported IC50 for COC(=O)/C=C/CN1CCc2cc(Nc3ncc(C)c(-c4cnn(C(C)C)c4)n3)ccc2C1 , tested with Non-receptor tyrosine-protein kinase TYK2 (Homo sapiens, UniProt P29597).
A. 88 nM

Q. Would you mind doing Cc1cnc(Nc2ccc3c(c2)CN(C(=O)/C=C/C(=O)c2ccccc2)CC3)nc1-c1cnn(C(C)C)c1 as well?
A. 52 nM

Q. Would you mind doing Cc1ccc(C(=O)/C=C/C(=O)N2CCc3ccc(Nc4ncc(C)c(-c5cnn(C(C)C)c5)n4)cc3C2)cc1 as well?
A. 30 nM

----------
species on record: Homo sapiens; test: Selectivity index, ratio of IC50 for inhibition of FLT3 ITD mutant in human MOLM13 cells to IC50 for inhibition of JAK2 V617F mutant in human SET-2 cells; assay type: cell-based
Rule: measured Ratio IC50 below 2 gets Y; anything equal to or greater than 2 gets N.

>>> classlabel("Cc1cnc(Nc2ccc3c(c2)CCN(C(=O)/C=C/C(=O)c2ccccc2)C3)nc1-c1cnn(C(C)C)c1")
"N"
>>> classlabel("C=CCN1CCc2cc(Nc3ncc(C)c(-c4cnn(C(C)C)c4)n3)ccc2C1")
"N"
>>> classlabel("Cc1cnc(Nc2ccc3c(c2)CCN(C/C=C/C(=O)NC(C)(C)C)C3)nc1-c1cnn(C(C)C)c1")
"Y"
>>> classlabel("CCCNC(=O)N1CCc2cc(Nc3ncc(C)c(-c4cnn(C(C)C)c4)n3)ccc2C1")
"Y"

Moving on to the next compound.
Q. Would you kindly verify if Ratio IC50 of Cc1ccc(C(=O)CCC(=O)N2CCc3cc(Nc4ncc(C)c(-c5cnn(C(C)C)c5)n4)ccc3C2)cc1 is strictly less than 2?
A. Y

----------
test: Selectivity index, ratio of IC50 for inhibition of recombinant human JAK3 (781 to end residues) to IC50 for inhibition of recombinant human JAK2 (808 to end residues)
Each item that follows carries a reported Ratio IC50.
Keep the answer to the number alone.

>>> experimentalvalue("Cc1ccc(C(=O)/C=C/C(=O)N2CCc3cc(Nc4ncc(C)c(-c5cnn(C(C)C)c5)n4)ccc3C2)cc1")
16.6
>>> experimentalvalue("Cc1cnc(Nc2ccc3c(c2)CN(C(=O)/C=C/C(=O)c2ccccc2)CC3)nc1-c1cnn(C(C)C)c1")
44.5
>>> experimentalvalue("Cc1cnc(Nc2ccc3c(c2)CCN(C(=O)/C=C/CN(C)C)C3)nc1-c1cnn(C(C)C)c1")
31

Next:
Q. Item COC(=O)/C=C/CN1CCc2cc(Nc3ncc(C)c(-c4cnn(C(C)C)c4)n3)ccc2C1 has what recorded Ratio IC50?
A. 38.5
